Reported MIC of ATM in the presence of compound is given for each of the following molecules.
Tested on: P. aeruginosa
Assay comment: Checkerboard assay (antibiotic + adjuvant combination MIC)
Format: cell-based, Pseudomonas aeruginosa
Experimental parameters: PA 88949; compound at 8 μM
Measured attribute: MIC of ATM in the presence of compound (µg/mL)

INSERT INTO assay_data (molecule, measured_attribute, value_unit, value_observed) VALUES
  ('Cl.Cl.Cl.Cl.Cl.Cl.NC[C@H]1O[C@H](O[C@H]2[C@H](OCCCCCCCCCCCCN3CCN(c4cc5c(cc4F)c(=O)c(C(=O)O)cn5C4CC4)CC3)[C@@H](O[C@H]3O[C@H](CO)[C@@H](O)[C@H](N)[C@H]3O)[C@H](N)C[C@@H]2N)[C@H](N)C[C@@H]1O [Compound 21, Tobramycin-ciprofloxacin]', 'MIC of ATM in the presence of compound', 'µg/mL', 8),
  ('NC[C@H]1O[C@H](O[C@H]2[C@H](OCCCCc3cn(CCCCO[C@@H]4[C@@H](O)[C@H](N)C[C@H](N)[C@H]4O[C@H]4O[C@H](CN)[C@@H](O)C[C@H]4N)nn3)[C@@H](O)[C@H](N)C[C@@H]2N)[C@H](N)C[C@@H]1O [Compound 26, Nebramine Homodimer]', 'MIC of ATM in the presence of compound', 'µg/mL', 16),
  ('N=C(N)NC[C@H]1O[C@H](O[C@H]2[C@H](OCCCCCCCCCCCCN3CCN(c4cc5c(cc4F)c(=O)c(C(=O)O)cn5C4CC4)CC3)[C@@H](O[C@H]3O[C@H](CO)[C@@H](O)[C@H](NC(=N)N)[C@H]3O)[C@H](NC(=N)N)C[C@@H]2NC(=N)N)[C@H](NC(=N)N)C[C@@H]1O [Compound 27]', 'MIC of ATM in the presence of compound', 'µg/mL', 32),
  ('Cl.Cl.Cl.Cl.Cl.NC[C@H]1O[C@H](O[C@H]2[C@H](OCCCCCCCCCCCCN3CCN(c4cc5c(cc4F)c(=O)c(C(=O)O)cn5C4CC4)CC3)[C@@H](O)[C@H](N)C[C@@H]2N)[C@H](N)C[C@@H]1O [Compound 24]', 'MIC of ATM in the presence of compound', 'µg/mL', 8);

FYI, the data here is from patent US20220249441A1.
